The measured values listed here are drawn from paper PMC7251097.

// values below are reported % inhibition
Study System: His6-AspH315–758 (human aspartate/asparagine-β-hydroxylase, AspH) (Homo sapiens, UniProt Q12797)
Construct: N-Terminally His6-tagged human AspH315–758 (His6-AspH315–758) was produced in E. coli BL21 (DE3) cells; made in house; host or cells: E. coli BL21 (DE3), pET-28a(+) vector
Procedure Summary: SPE-MS AspH inhibition assay (LOPAC screen at fixed 20 μM and IC50 dose-response), hydroxylation of cyclic peptide hFX-CP101–119
Assay type: biochemical
Condition: LOPAC Plate 4, compound at 20 uM
Where a name gives a salt, the structure may show the parent alone.
Quick note: give the figure in %, leave out the unit.

Bench note: what % inhibition did CCCCCCCC/C=C\CCCCCCCC(=O)NCCc1ccc(O)c(O)c1 show?
94.15

State the recorded % inhibition for this entry: O=C(O)CCCCC1CCSS1 (racemic) [(±)-alpha-Lipoic Acid]
5.35

For O=C(O)/C=C\C(=O)O.c1cnc(N2CCN(Cc3ccc4c(c3)OCO4)CC2)nc1 [Piribedil maleate] , what is its reported % inhibition?
-4.83

Entry Cc1ccc(S(=O)(=O)N[C@@H](Cc2ccccc2)C(=O)CCl)cc1 has what % inhibition?
-4.78

I would be grateful if you could share the reported % inhibition for O=C1CCC(N2C(=O)c3ccccc3C2=O)C(=O)N1 (racemic) [(±)-Thalidomide] .
-5.00

---
Look at this compound and give its reported % inhibition. Br.Cc1cccc(C2CN(C)CCc3c2cc(O)c(O)c3Cl)c1 (centres unmarked) [SKF 83959 hydrobromide, reference compound]
95.13

Can you look up the measured % inhibition of CC(C)(C)c1ccc(/C=C/C(=O)Nc2ccc3c(c2)OCCO3)cc1 for me?
5.34

Using the record for O=C(c1cc(O)c(O)c([N+](=O)[O-])c1)c1ccccc1F [Ro 41-0960, reference compound] , report its % inhibition.
97.80

# input compound: Nc1ccc(-c2ccc3ccccc3n2)cc1 [BF-170 hydrochloride] ; wanted: its % inhibition
-2.46

% inhibition lookup needed for O=c1ccn([C@@H]2O[C@H](COP(=O)([O-])OP(=O)([O-])O)[C@@H](O)[C@H]2O)c(=O)[nH]1.[Na+].[Na+] [Uridine 5-diphosphate sodium] , thanks.
-0.23

Given the entry Clc1ccc(N2CCN(Cc3cc4ccccn4n3)CC2)cc1 , report its measured % inhibition.
-8.79

I am curious: what % inhibition value has been reported for C[N+]1(C)CCC(OC(=O)C(c2ccccc2)c2ccccc2)CC1.[I-] ?
-3.63

// % inhibition lookup, key: CC1CCN(CC[C@H]2CCCN2S(=O)(=O)c2cccc(O)c2)CC1.Cl [SB 269970 hydrochloride]
-11.63

Data request, read-out % inhibition, for Cn1c(=O)c(-c2c(Cl)cccc2Cl)cc2cnc(Nc3ccc(N4CCOCC4)cc3)nc21
-8.20

Which % inhibition value is on record for N#CC(C#N)=C(N)/C(C#N)=C/c1ccc(O)cc1 ?
-1.91

GET /values?readout=% inhibition&item= CN=c1nc(-c2ccccc2)n(-c2ccccc2)s1 [SCH-202676, reference compound]
100.56

% inhibition for CCCN1CCC[C@H](c2cccc(O)c2)C1.Cl [R(+)-3PPP hydrochloride] ?
3.51

---

Listed next: entries and their corresponding Plate 2 (% inhibition).
Study System: His6-AspH315–758 (human aspartate/asparagine-β-hydroxylase, AspH) (Homo sapiens)
Construct: N-Terminally His6-tagged human AspH315–758 (His6-AspH315–758) was produced in E. coli BL21 (DE3) cells; made in house; host or cells: E. coli BL21 (DE3), pET-28a(+) vector
Sequence (Q12797 315-758): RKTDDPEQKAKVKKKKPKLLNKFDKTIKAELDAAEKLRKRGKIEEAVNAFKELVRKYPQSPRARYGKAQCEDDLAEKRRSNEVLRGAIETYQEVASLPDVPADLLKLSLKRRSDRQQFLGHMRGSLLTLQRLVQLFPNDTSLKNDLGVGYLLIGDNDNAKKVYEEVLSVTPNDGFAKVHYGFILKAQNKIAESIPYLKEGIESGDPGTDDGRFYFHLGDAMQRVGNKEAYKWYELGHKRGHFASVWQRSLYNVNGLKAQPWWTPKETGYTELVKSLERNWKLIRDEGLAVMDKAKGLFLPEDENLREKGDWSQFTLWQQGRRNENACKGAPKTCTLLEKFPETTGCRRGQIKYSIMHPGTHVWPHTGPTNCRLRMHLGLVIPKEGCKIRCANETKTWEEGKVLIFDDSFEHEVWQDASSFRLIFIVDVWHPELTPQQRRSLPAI
Procedure Summary: SPE-MS AspH inhibition assay (LOPAC screen at fixed 20 μM and IC50 dose-response), hydroxylation of cyclic peptide hFX-CP101–119
Assay type: biochemical
Condition: 20 µM
Provide the reading as a plain figure in %.

Name the recorded Plate 2 (% inhibition) for Cl.Oc1cc2c(cc1O)C(c1ccccc1)CNCC2 (racemic) [(±)-SKF-38393 hydrochloride] .
77.21

Report Plate 2 (% inhibition) for O=C1C(SCCO)=C(SCCO)C(=O)c2ccccc21 please.
36.92

Next up:
Look up Plate 2 (% inhibition): C[N+](C)(C)CCCCCCCCCC[N+](C)(C)C.[Br-].[Br-] [Decamethonium dibromide]
-16.63
